- experiment: wild-type TIM10 yeast growth inhibition – luminescence, uHTS, counter-screen for tim10-1 yeast inhibitor project, primary screen (AID 463195);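 also: wild-type TIM10 isogenic control strain grown at permissive 25 °C; 0% = DMSO yeast wells and 100% = minimal medium wells without yeast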
- experimental parameters: S. cerevisiae TIM10 strain growth, BacTiter-Glo luminescence, 24 h; at 10 µM; hits give high values
Among all 330,000 compounds or so, about 4,600 (1.4%) were called active. This is one part of a sample in which actives are shown more often than they occur.
The label depends only on inhibition: 1 (yes) if it is at least 10%, 0 (no) if it is smaller.

As a guide, the following entries are already answered.
- compound: "Cc1onc(NC(=O)c2ccc([N+](=O)[O-])o2)c1Br"
  group: "1 (yes)"
- compound: "Cc1onc(C(=O)Nc2ccc3c(c2)OCO3)c1[N+](=O)[O-]"
  group: "0 (no)"
- compound: "Cc1ccc(CCN2CC(C(=O)O)CC2=O)cc1 (stereo not drawn)"
  group: "0 (no)"
- compound: "Cc1onc(C(=O)NCc2ccc(F)cc2)c1[N+](=O)[O-]"
  group: "0 (no)"
- compound: "CCOC(=O)c1cnc(SCc2nc(N)nc(Nc3ccc(OC)cc3)n2)nc1N"
  group: "1 (yes)"
- compound: "COc1ccc(Nc2nc(N)nc(CSC(=S)N3CCC(C)CC3)n2)cc1"
  group: "1 (yes)"

## Input Could you please find out whether `C=C(C)COc1ccc(-c2ncncc2-c2ccc(OC)cc2)c(O)c1` has inhibition that meets 10% or exceeds it?
## Output 1 (yes)

## Input Kindly determine if inhibition recorded for O=C(Nc1ccc([N+](=O)[O-])cc1)C1CC12CCC2 (stereo not drawn) is above or exactly 10%.
## Output 1 (yes)

## Input Textbook exercise: given the entry `Cc1cc(C)c(CN2CCN(C(=O)Cn3ccc(NC(=O)OCc4ccccc4)nc3=O)CC2)c(C)c1` , state whether its inhibition is greater than or equal to 10%.
## Output 1 (yes)

## Input Is it the case that `CCCc1nc2c(c(=O)c3ccccc3n2C)c(=O)n1C1CCCCCC1` has inhibition reaching or exceeding 10%?
## Output 1 (yes)

## Input Could you verify whether the entry `O=C(N/N=C/c1cccc(Br)c1)c1ccc(N2CCCC2=O)cc1` shows inhibition of no less than 10%?
## Output 1 (yes)

## Input # bool: inhibition of `CCOc1ccc2nc(N3CCCN(C(=O)Nc4ccccc4C)CC3)c(C#N)cc2c1` >= 10%
## Output 0 (no)

## Input Form field: inhibition at least 10%? Entry: `CC1CCN(Cc2nc3c(c(=O)n(C)c(=O)n3C)n2CCc2ccccc2)CC1`
## Output 0 (no)

## Input Does the reported inhibition for CCC1CCC2(CC1)NC(=O)N(CC(=O)Nc1ccc(OC)cc1)C2=O (stereo not drawn) fall at or above the 10% mark?
## Output 0 (no)

## Input Please check the record CCC(C)(C)n1nnnc1C(c1cccs1)N1CCN(c2nc3ccccc3s2)CC1 (stereo not drawn) and state if its inhibition is at or above 10%.
## Output 1 (yes)

## Input Exam item: decide whether the reported inhibition for `O=C(Nc1ccc(Br)cn1)c1ccc([N+](=O)[O-])cc1Cl` is at least 10%.
## Output 1 (yes)

## Input Identify whether the reported inhibition of the following compound is 10% or greater: `CC(C)NS(=O)(=O)c1ccc(CCC(=O)N2CCOCC2)cc1`
## Output 0 (no)

## Input Is reported inhibition greater than or equal to 10% here: `C=C(C)COc1ccc(-c2n[nH]c(C)c2-c2ccccc2)c(O)c1`
## Output 1 (yes)

## Input Reported inhibition at or above 10%? `Cc1ccc(NC(=S)N/N=C2/CCCc3c(C)cc(C)cc32)cc1`
## Output 0 (no)

## Input Evaluate `Cc1cc(C)cc(NC(=O)Cn2cnc3c(nnn3Cc3ccc(F)cc3)c2=O)c1` : inhibition at minimum 10%?
## Output 0 (no)

###

- experiment: wild-type TIM10 yeast growth inhibition – luminescence, uHTS, counter-screen for tim10-1 yeast inhibitor project, primary screen (AID 463195);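 also: wild-type TIM10 isogenic control strain grown at permissive 25 °C; 0% = DMSO yeast wells and 100% = minimal medium wells without yeast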
- experimental parameters: S. cerevisiae TIM10 strain growth, BacTiter-Glo luminescence, 24 h; at 10 µM
About 4,600 (1.4%) of roughly 330,000 compounds were called active.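 How the source made its calls: active means inhibition of 40% or more at the single tested concentration; inactive means the rest.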 What follows is part of a selection rich in actives, with near analogues and random picks from the rest.
One label from this list, please: active, inactive

- molecule: "O=S(=O)(ON(c1ccccc1)S(=O)(=O)c1ccccc1)c1ccccc1"
  group: "active"
- molecule: "O=C(Nc1cccc(-c2nc3ncccc3o2)c1)c1ccco1"
  group: "inactive"
- molecule: "O=C(CSCc1ccccc1)Nc1ccccc1"
  group: "inactive"
- molecule: "CCN(c1ccccc1)S(=O)(=O)c1ccc(N)cc1"
  group: "inactive"
- molecule: "Cc1cccc(NC(=O)CCn2c(=O)oc3ccccc32)c1"
  group: "inactive"
- molecule: "CCN(CC(=O)Nc1ccc2c(c1)OCCO2)Cc1cc(=O)oc2cc(C)c(C)cc12"
  group: "inactive"

## Input Hello, I am checking results. What call was entered for `CC(C)NC(=O)NC(=O)CSc1nnc(-c2ccccc2F)n1N` ?
## Output inactive

## Input Hello, I am checking results. What call was entered for COC(=O)c1c(NC(=O)C2CC(C)=C(C)CC2C(=O)O)sc2c1CCCCC2 (stereo unspecified) ?
## Output inactive

## Input Call for entry `COc1cccc(N(CC(=O)NCCSc2ccccn2)S(C)(=O)=O)c1` :
## Output inactive

## Input State the result this test recorded for CC(C(=O)Nc1ccc(F)c(F)c1F)N1CCCCCC1 (stereo unspecified) .
## Output inactive

## Input Dear all, I need the recorded test outcome for `O=C(Nc1ccc2oc(-c3ccc4ccccc4c3)nc2c1)c1cccs1` , thank you.
## Output inactive

###

- experiment: wild-type TIM10 yeast growth inhibition – luminescence, uHTS, counter-screen for tim10-1 yeast inhibitor project, primary screen (AID 463195);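 also: wild-type TIM10 isogenic control strain grown at permissive 25 °C; 0% = DMSO yeast wells and 100% = minimal medium wells without yeast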
- experimental parameters: S. cerevisiae TIM10 strain growth, BacTiter-Glo luminescence, 24 h; at 10 µM
Out of some 330,000 compounds screened, about 4,600 (1.4%) were called active.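 Rule for the calls: active = inhibition of 40% or more at the single tested concentration; inactive = the rest.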 This excerpt belongs to a sample that is enriched for actives.
A correct response names exactly one class from Y (active), N (inactive)

- molecule: "CCOC(=O)N/N=C/c1cn(Cc2ccccc2Cl)c2ccccc12"
  group: "N"
- molecule: "C[C@@H]1CC[C@@]2(OC1)O[C@H]1C[C@H]3[C@@H]4CC=C5C[C@@H](O)[C@H](O)C[C@]5(C)C4CC[C@]3(C)[C@H]1[C@@H]2C (stereo partly specified)"
  group: "N"
- molecule: "CC1CCC(NC(=O)C2c3ccccc3C(=O)N2Cc2ccc3c(c2)OCO3)CC1 (stereo unspecified)"
  group: "N"
- molecule: "N#CCC(=O)N/N=C/c1cn(Cc2ccc3ccccc3c2)c2ccccc12"
  group: "N"
- molecule: "CCc1ccc(NC(=O)NC(C)c2ccc3c(c2)OCO3)cc1 (stereo unspecified)"
  group: "N"

Kindly review the next molecule as well.
## Input Please indicate how the test categorized `CNC(=S)N/N=C/c1cn(Cc2ccc(C)cc2)c2ccccc12` .
## Output Y

###

- experiment: wild-type TIM10 yeast growth inhibition – luminescence, uHTS, counter-screen for tim10-1 yeast inhibitor project, primary screen (AID 463195);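 also: wild-type TIM10 isogenic control strain grown at permissive 25 °C; 0% = DMSO yeast wells and 100% = minimal medium wells without yeast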
- experimental parameters: S. cerevisiae TIM10 strain growth, BacTiter-Glo luminescence, 24 h; at 10 µM; hits give high values
Out of some 330,000 compounds screened, about 4,600 (1.4%) were called active. The sample as a whole holds a higher share of actives than the screen did.
Could you please report measured inhibition for the items listed next?
Numbers only, in %.

- compound: "COc1ccccc1-n1ccnc(SCC(=O)NC2CCCCC2)c1=O"
  inhibition, %: 15.4
- compound: "COc1ccc(CN2C(CC(=O)Nc3cccnc3)c3ccc(C(F)(F)F)cc3S2(=O)=O)cc1 (stereo unspecified)"
  inhibition, %: -7.66
- compound: "CN(C)CCc1c[nH]c2ccc(Cn3cncn3)cc12"
  inhibition, %: 5.24
- compound: "COC(=O)c1ccc(OC(=O)c2nn(C)cc2Cl)c(OC)c1"
  inhibition, %: 8.9
- compound: "Cn1c(CNC(=O)c2ccco2)nnc1SCC(=O)N1CCN(c2ccccc2)CC1"
  inhibition, %: 2.03
- compound: "COc1ccccc1OCCC(=O)OCC(=O)NCc1ccccc1"
  inhibition, %: 9.81
- compound: "O=C(COC(=O)c1ccccc1Br)Nc1nnc(-c2ccccc2)o1"
  inhibition, %: -0.697
- compound: "CC(=O)Nc1ccc(Nc2c([N+](=O)[O-])cc(S(C)(=O)=O)cc2[N+](=O)[O-])cc1"
  inhibition, %: -6.6

# batch: return inhibition for each of the 2 compounds below
1. Cc1ccc(S(=O)(=O)n2nc(OC(=O)C(C)(C)C)cc2N)cc1
2. CC(=O)N(Cc1cccs1)C1CCOC(C)(C)C1 (stereo unspecified)

## Output
1. 17.1
2. -0.323

## Input Tell me the measured inhibition of `Cn1ccnc1SCC(=O)Nc1ccc2c(c1)OCCO2` , please.
## Output 8.81

Cited source for all entries: PubChem BioAssay AID463195
